- procedure_text: Pharmacokinetics of Compound 40 and benzene sulfonate thereof in ICR mice, PO
- test_conditions: mouse, in vivo, PO 100 mg/kg (based on free base), 40% Hp-β-CD
This listing pairs compounds with measured AUC(0-t).
Enter your answer as a number in ng·h/mL; do not include the unit.

compound: Cn1nnc(-c2ccc(CCNc3nc(N)n4nc(-c5ccco5)nc4n3)cc2)n1
quantity_unit: ng·h/mL
measured_number: 11900

Now, please, on to the next compound.
AUC(0-t) lookup needed for Cn1nnc(-c2ccc(CCNc3nc(N)n4nc(-c5ccco5)nc4n3)cc2)n1.O=S(=O)(O)c1ccccc1 [Benzene sulfonate of Compound 40] , thanks.
138000
